# Tested on: Dirofilaria immitis JYD strain (ivermectin-resistant)
# assay_overview: Infection of NSG mice with ivermectin-resistant JYD strain D. immitis L3, treatment, recovery and count of worms
# Type: in vivo
# condition_details: in vivo, 1 mg/kg
Each entry below lists one item and its recorded Survival, Mean value.
Reply briefly: the number, and no unit.

compound_structure_string	tested_on	value_measured
C[C@H]1OC(=O)[C@H](CC(C)(C)C)N(C)C(=O)[C@@H](Cc2ccc(OC(F)(F)F)cc2)OC(=O)[C@H](CC(C)(C)F)N(C)C(=O)[C@@H](C)OC(=O)[C@H](CC(C)(C)C)N(C)C(=O)[C@@H](Cc2ccc(OC(F)(F)F)cc2)OC(=O)[C@H](CC(C)(C)F)N(C)C1=O	Dirofilaria immitis JYD strain (ivermectin-resistant)	14

Measured Survival, Mean of `CC(C)C[C@H]1C(=O)O[C@H](C)C(=O)N(C)[C@@H](CC(C)(C)F)C(=O)O[C@H](Cc2ccc(C3CCOCC3)cc2)C(=O)N(C)[C@@H](CC(C)C)C(=O)O[C@H](C)C(=O)N(C)[C@@H](CC(C)(C)F)C(=O)O[C@H](Cc2ccc(C3CCOCC3)cc2)C(=O)N1C` : 7

Recorded result, `CC(C)C[C@H]1C(=O)O[C@H](C)C(=O)N(C)[C@@H](CC(C)(C)F)C(=O)O[C@H](Cc2ccc(OC(F)(F)F)cc2)C(=O)N(C)[C@@H](CC(C)C)C(=O)O[C@H](C)C(=O)N(C)[C@@H](CC(C)(C)F)C(=O)O[C@H](Cc2ccc(OC(F)(F)F)cc2)C(=O)N1C` , Survival, Mean: 4

// recorded Survival, Mean for `CC(C)C[C@H]1C(=O)O[C@H](C)C(=O)N(C)[C@@H](CC(C)(C)F)C(=O)O[C@H](Cc2ccc(C(F)(F)F)cc2)C(=O)N(C)[C@@H](CC(C)C)C(=O)O[C@H](C)C(=O)N(C)[C@@H](CC(C)(C)F)C(=O)O[C@H](Cc2ccc(C(F)(F)F)cc2)C(=O)N1C` : 13
